Exercise: for every item that follows, state its recorded EC50.
# Tested on: HBV
# PROCEDURE_DETAILS: Anti-viral assay in HepG2.2.15 cells: HBV inhibitory activity (HBV DNA in culture medium by q-PCR)
# Assay type: cell-based
# MEASUREMENT_CONTEXT: Hepatitis B virus, HepG2.2.15, 144 h, HepG2.2.15 cells, 6 days treatment, HBV DNA in culture medium by q-PCR, highest concentration 10 uM; read-out: EC50
Enter your answer as a number in nM; do not include the unit.

Query string: # query: EC50 | item COC(=O)C1=C(C2CCN(C(=O)c3cnn(C)c3)CC2)NC(c2nccs2)=NC1c1ccc(F)cc1Cl (single isomer, unassigned) | system: HBV
Result string: 66

Query string: Also check CCOC(=O)C1=C(C2CCN(c3cc(C(=O)O)nc(C)n3)CC2)NC(c2nccs2)=NC1c1ccc(F)c(F)c1Cl (single isomer, unassigned)
Result string: 98

Query string: Follow-up item: CCOC(=O)C1=C(C2CCN(c3cc(C(F)(F)F)c(C(=O)O)cn3)CC2)NC(c2nccs2)=NC1c1ccc(F)c(F)c1Cl (single isomer, unassigned)
Result string: 7.6

Query string: Another compound: CCOC(=O)C1=C(C2CCN(c3ncc(N(C)C)c(C(=O)O)n3)CC2)NC(c2nccs2)=NC1c1ccc(F)cc1Br (single isomer, unassigned)
Result string: 22

Query string: Another compound: CCOC(=O)C1=C(C2CCN(c3ncc(N(C)C)c(C(=O)O)n3)CC2)NC(c2nccs2)=NC1c1cccc(F)c1Br (single isomer, unassigned)
Result string: 14

Query string: How about this compound: CCOC(=O)C1=C(C2CCN(c3cnc(OC)c(C(=O)O)n3)CC2)NC(c2nccs2)=NC1c1ccc(F)c(F)c1Cl (single isomer, unassigned)
Result string: 25

* * *

# PROCEDURE_DETAILS: Cytotoxicity determination in HepG2.2.15 cells (CCK-8)
# Type: cell-based
# MEASUREMENT_CONTEXT: human, 6 days treatment, CCK-8, highest concentration 100 uM
Record form. Attribute: CC50 at 6 days. Fill in for each entry.
# output: bare number, implied unit µM

Query string: For CCOC(=O)C1=C(C2CCN(c3ncc(C(=O)O)c(C)n3)CC2)NC(c2nccs2)=NC1c1ccc(F)c(F)c1Cl (single isomer, unassigned) , what is its reported CC50 at 6 days?
Result string: 5.92

Query string: Follow-up item: CCOC(=O)C1=C([C@H]2CC[C@H](c3cnn(CC(=O)O)c3)CC2)NC(c2nccs2)=NC1c1ccc(F)c(F)c1Cl (single isomer, unassigned)
Result string: 5.28

Query string: Try this molecule next: CCOC(=O)C1=C([C@H]2CC[C@H](c3nc(C(=O)O)co3)CC2)NC(c2nccs2)=NC1c1ccc(F)cc1C (single isomer, unassigned)
Result string: 11.1

Query string: One more molecule: COC(=O)C1=C([C@H]2CC[C@H](c3nc(CC(=O)O)c(C)o3)CC2)NC(c2nccs2)=NC1c1ccc(F)c(F)c1Cl (single isomer, unassigned)
Result string: 7.68

Query string: Same again, this time with CCOC(=O)C1=C(C2CCN(c3cnc(C(=O)O)cn3)CC2)NC(c2nccs2)=NC1c1ccc(F)c(F)c1Cl (single isomer, unassigned)
Result string: 0.67

Query string: Now consider CCOC(=O)C1=C([C@H]2CC[C@H](c3nc(C(=O)O)co3)CC2)NC(c2nccs2)=NC1c1cccc(F)c1Cl (single isomer, unassigned) and answer again.
Result string: 12.3

Query string: Now consider CCOC(=O)C1=C(C2CCN(c3nc(C)c(C(=O)O)o3)CC2)NC(c2nccs2)=NC1c1ccc(F)c(F)c1Cl (single isomer, unassigned) .
Result string: 6.84

Query string: Do the same for CCOC(=O)C1=C(C2CCN(c3nc(C(=O)O)c(C)o3)CC2)NC(c2nccs2)=NC1c1ccc(F)c(F)c1Cl (single isomer, unassigned) please
Result string: 8.32

Query string: Record: COC(=O)C1=C(C2CCN(c3nc(C(=O)O)co3)CC2)NC(c2nccs2)=NC1c1ccc(F)cc1Cl (single isomer, unassigned)
Result string: 70

Query string: And what about the molecule COC(=O)C1=C(C2CCN(c3ncc(C)c(C(=O)O)n3)CC2)NC(c2nccs2)=NC1c1ccc(F)c(F)c1C (single isomer, unassigned) ?
Result string: 26.8

Query string: How about CCOC(=O)C1=C([C@H]2CC[C@H](c3nc(C(=O)O)co3)CC2)NC(c2nccs2)=NC1c1cccc(F)c1C (single isomer, unassigned) ?
Result string: 12.1

Query string: Same thing, different molecule: COC(=O)C1=C(C2CCN(c3ncc(OC)c(C(=O)O)n3)CC2)NC(c2nccs2)=NC1c1ccc(F)c(F)c1C (single isomer, unassigned)
Result string: 25.8

Query string: Now consider COC(=O)C1=C([C@H]2CC[C@H](c3nc(CC(=O)O)co3)CC2)NC(c2nccs2)=NC1c1ccc(F)cc1Cl (single isomer, unassigned) and answer again.
Result string: 25.7

Query string: // next record COC(=O)C1=C(C2CCN(c3ncc(C(=O)O)s3)CC2)NC(c2nccs2)=NC1c1ccc(F)c(F)c1Br (single isomer, unassigned)
Result string: 9.48

Query string: Note, next up: COC(=O)C1=C(C2CCN(c3ncc(C)c(C(=O)O)n3)CC2)NC(c2nccs2)=NC1c1ccc(F)cc1C (single isomer, unassigned)
Result string: 28.4

Query string: Then CCOC(=O)C1=C(C2CCN(c3ncc(C(=O)O)cn3)CC2)NC(c2nccs2)=NC1c1ccc(F)c(F)c1Cl (single isomer, unassigned) ?
Result string: 9.31

Query string: Would you mind doing COC(=O)C1=C(C2CCN(C(=O)c3cnn(C)c3)CC2)NC(c2nccs2)=NC1c1ccc(F)cc1Cl (single isomer, unassigned) as well?
Result string: 25.5

Query string: Can you check CCOC(=O)C1=C([C@H]2CC[C@H](c3nc(C(=O)O)co3)CC2)NC(c2nccs2)=NC1c1ccc(F)c(F)c1Cl (single isomer, unassigned) next?
Result string: 9.37

Query string: Another molecule to look at: COC(=O)C1=C(C2CCN(c3ncc(C)c(C(=O)O)n3)CC2)NC(c2nccs2)=NC1c1cccc(F)c1Br (single isomer, unassigned)
Result string: 21.4

Query string: Moving on to the next molecule: CCOC(=O)C1=C(C2CC=C(c3nc(C(=O)O)co3)CC2)NC(c2nccs2)=NC1c1ccc(F)c(F)c1Cl (single isomer, unassigned)
Result string: 5.61

Query string: Now the molecule CCOC(=O)C1=C(C2CCN(c3ncc(N(C)C)c(C(=O)O)n3)CC2)NC(c2nccs2)=NC1c1cccc(F)c1Br (single isomer, unassigned)
Result string: 27.6

Query string: Next: CCOC(=O)C1=C([C@H]2CC[C@H](c3ccc(C(=O)O)cc3)CC2)NC(c2nccs2)=NC1c1ccc(F)c(F)c1Cl (single isomer, unassigned)
Result string: 1.81

* * *

Task for the reader: assign each of the following compounds its reported pEC50.
# Tested on: HBV
# PROCEDURE_DETAILS: Anti-viral assay in HepG2.2.15 cells: HBV inhibitory activity (HBV DNA in culture medium by q-PCR)
# Type: cell-based
# MEASUREMENT_CONTEXT: Hepatitis B virus, HepG2.2.15, 144 h, HepG2.2.15 cells, 6 days treatment, HBV DNA in culture medium by q-PCR, highest concentration 10 uM; read-out: EC50
// returns pEC50 (minus log10 of molar concentration), number only

Query string: GET /values?readout=pEC50&item= COC(=O)C1=C(C2CCN(c3ncc(C(=O)O)s3)CC2)NC(c2nccs2)=NC1c1ccc(F)cc1Br (single isomer, unassigned)
Result string: 8.19

Query string: How about this compound: CCOC(=O)C1=C(C2CCN(c3ncc(C)c(C(=O)O)n3)CC2)NC(c2nccs2)=NC1c1cccc(F)c1C (single isomer, unassigned)
Result string: 8.08

Query string: Same question, CCOC(=O)C1=C([C@H]2CC[C@H](c3cc(C(=O)O)on3)CC2)NC(c2nccs2)=NC1c1ccc(F)c(F)c1Cl (single isomer, unassigned) this time
Result string: 7.54

* * *

Record form. Attribute: CC50 at 6 days. Fill in for each entry.
# PROCEDURE_DETAILS: Cytotoxicity determination in HepG2.2.15 cells (CCK-8)
# Type: cell-based
# MEASUREMENT_CONTEXT: human, 6 days treatment, CCK-8, highest concentration 100 uM
Respond numerically; units are µM and should not be typed.

Query string: Could you share which CC50 at 6 days value was measured for CCOC(=O)C1=C([C@H]2CC[C@H](c3cnn(CCC(=O)O)c3)CC2)NC(c2nccs2)=NC1c1ccc(F)c(F)c1Cl (single isomer, unassigned) ?
Result string: 5.81

Query string: Entry CCOC(=O)C1=C(C2CCN(c3nc(C)c(C(=O)O)c(C)n3)CC2)NC(c2nccs2)=NC1c1ccc(F)c(F)c1Cl (single isomer, unassigned) please
Result string: 6.33

Query string: Same question, CCOC(=O)C1=C([C@H]2CC[C@H](c3cnn(CC(C)(C)C(=O)O)c3)CC2)NC(c2nccs2)=NC1c1ccc(F)c(F)c1Cl (single isomer, unassigned) this time
Result string: 2.22

Query string: And the next one, CCOC(=O)C1=C(C2CCN(c3ncc(C)c(C(=O)O)n3)CC2)NC(c2nccs2)=NC1c1ccc(F)c(F)c1Cl (single isomer, unassigned) ?
Result string: 8.28
